Recorded values, source patent US12187728B2.

target: Human MTHFD2 (Homo sapiens, UniProt P13995)
pIC50: −log10 of the molar value.
quantity kind: pIC50

| molecule | data value |
| --- | --- |
| Cn1c(C(O)C2CCC(C(=O)O)CC2)nc2c1c(=O)n(Cc1ccc(Cl)c(Cl)c1)c(=O)n2C (centres unmarked) | 5.30 to 6.00 |
| C[C@@H](O)CNc1nc2c(c(=O)n(Cc3ccc(Cl)c(F)c3)c(=O)n2C)n1C | 5.00 to 5.30 |
| Cn1c(N[C@@H]2CCC[C@H]2O)nc2c1c(=O)n(Cc1ccc(Cl)c(Cl)c1)c(=O)n2C | 6.00 to 8.00 |
| COc1cc(Cn2c(=O)c3c(nc(NCCCO)n3C)n(C)c2=O)ccc1Cl | 5.30 to 6.00 |
| Cn1c(NCCCO)nc2c1c(=O)n(Cc1ccc(F)c(F)c1)c(=O)n2C | < 5.00 |
| Cn1c(-n2nccc2N)nc2c1c(=O)n(Cc1cc3cc(Cl)ccc3[nH]1)c(=O)n2C | 6.00 to 8.00 |
| Cn1c(NCc2cn[nH]c2)nc2c1c(=O)n(Cc1ccc(Cl)c(Cl)c1)c(=O)n2C | 5.30 to 6.00 |
| Cn1c(Cn2c(=O)c3c(nc(-n4ncnc4N)n3C)n(C)c2=O)cc2cc(Cl)ccc21 | 6.00 to 8.00 |
| Cn1c(NC[C@@H]2CCCO2)nc2c1c(=O)n(Cc1ccc(Cl)c(Cl)c1)c(=O)n2C | 5.30 to 6.00 |
| Cn1c(N[C@@H]2CCCC[C@H]2O)nc2c1c(=O)n(Cc1ccc(Cl)c(Cl)c1)c(=O)n2C | 5.30 to 6.00 |
| Cn1c(C(N)c2ccccn2)nc2c1c(=O)n(Cc1cc3c(Cl)cccc3[nH]1)c(=O)n2C (centres unmarked) | 6.00 to 8.00 |
| Cn1c(CC(=O)O)nc2c1c(=O)n(Cc1ccc(Cl)c(Cl)c1)c(=O)n2C | 5.00 to 5.30 |
| Cn1c(NC2CCCNC2=O)nc2c1c(=O)n(Cc1ccc(Cl)c(Cl)c1)c(=O)n2C (racemic) | 6.00 to 8.00 |
| Cn1c(Cn2c(=O)c3c(nc(Nc4cc[nH]c(=O)n4)n3C)n(C)c2=O)cc2cc(Cl)ccc21 | 6.00 to 8.00 |
| Cn1c(Nc2ccnc(CCC(=O)N3CCOCC3)n2)nc2c1c(=O)n(Cc1cc3c(Cl)cccc3[nH]1)c(=O)n2C | 6.00 to 8.00 |
| Cn1c(Nc2ccncc2)nc2c1c(=O)n(Cc1cc3cccc(Cl)c3[nH]1)c(=O)n2C | 6.00 to 8.00 |
| Cn1c(Nc2cccc([C@H]3C[C@@H]3CO)n2)nc2c1c(=O)n(Cc1cc3c(Cl)cccc3[nH]1)c(=O)n2C (racemic) | 5.30 to 6.00 |
| Cn1c(N[C@H](CO)CC2CCCCC2)nc2c1c(=O)n(Cc1ccc(Cl)c(Cl)c1)c(=O)n2C | 6.00 to 8.00 |
| C[C@H](O)CNc1nc2c(c(=O)n(Cc3ccc(C(F)(F)F)cc3)c(=O)n2C)n1C | 5.00 to 5.30 |
| Cn1c(Nc2cccc(CCC(=O)O)n2)nc2c1c(=O)n(Cc1ccc(Cl)c(Cl)c1)c(=O)n2C | 6.00 to 8.00 |
| Cn1c(Nc2ccnc(C3CC(C(N)=O)C3)c2)nc2c1c(=O)n(Cc1ccc(Cl)c(Cl)c1)c(=O)n2C (centres unmarked) | 6.00 to 8.00 |
| Cn1c(C(N)C2CCC2)nc2c1c(=O)n(Cc1cc3c(Cl)cccc3[nH]1)c(=O)n2C (centres unmarked) | 6.00 to 8.00 |
| CN(C)C(=O)CCc1nccc(Nc2nc3c(c(=O)n(Cc4cc5c(Cl)cccc5[nH]4)c(=O)n3C)n2C)n1 | 6.00 to 8.00 |

====

Molecular target: Human MTHFD2 (Homo sapiens, UniProt P13995)
Sequence (P13995 36-350): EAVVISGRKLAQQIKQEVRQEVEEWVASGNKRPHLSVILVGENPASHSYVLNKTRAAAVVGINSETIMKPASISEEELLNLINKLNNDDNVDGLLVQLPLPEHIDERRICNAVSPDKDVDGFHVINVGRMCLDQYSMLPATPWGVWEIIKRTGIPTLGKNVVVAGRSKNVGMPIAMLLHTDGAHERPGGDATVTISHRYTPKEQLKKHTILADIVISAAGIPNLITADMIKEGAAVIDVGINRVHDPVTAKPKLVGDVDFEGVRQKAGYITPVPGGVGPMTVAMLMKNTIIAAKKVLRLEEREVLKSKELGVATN
pIC50: −log10 of the molar value.
quantity kind: pIC50

| molecule | quantity kind | data value |
| --- | --- | --- |
| Cn1c(N[C@H]2CCC[C@H](C(=O)O)C2)nc2c1c(=O)n(Cc1ccc(Cl)c(Cl)c1)c(=O)n2C (single isomer, unassigned) [Example 186] | pIC50 | 6.00 to 8.00 |
| Cn1c(Nc2cccc(CCC(=O)O)c2)nc2c1c(=O)n(Cc1ccc(Cl)c(Cl)c1)c(=O)n2C | pIC50 | 6.00 to 8.00 |
| Cn1c(-n2c(N)nc3ccccc32)nc2c1c(=O)n(Cc1cc3c(Cl)cccc3[nH]1)c(=O)n2C | pIC50 | 5.30 to 6.00 |
| Cn1c(Nc2ccnc(CNC(N)=O)n2)nc2c1c(=O)n(Cc1cc3c(Cl)cccc3[nH]1)c(=O)n2C | pIC50 | 6.00 to 8.00 |
| Cn1c(C(N)c2cccnc2)nc2c1c(=O)n(Cc1cc3c(Cl)cccc3[nH]1)c(=O)n2C (centres unmarked) | pIC50 | 6.00 to 8.00 |
| COc1cc(Cn2c(=O)c3c(nc(N[C@@H]4CCC[C@H]4O)n3C)n(C)c2=O)ccc1Cl | pIC50 | 5.30 to 6.00 |
| Cn1c(NC2CCNC2=O)nc2c1c(=O)n(Cc1ccc(Cl)c(Cl)c1)c(=O)n2C (centres unmarked) | pIC50 | 6.00 to 8.00 |
| Cn1c(N[C@H]2CC[C@@H](O)C2)nc2c1c(=O)n(Cc1cc3cc(Cl)ccc3[nH]1)c(=O)n2C (racemic) | pIC50 | 6.00 to 8.00 |
| Cn1c(Nc2cc[nH]n2)nc2c1c(=O)n(Cc1ccc(Cl)c(Cl)c1)c(=O)n2C | pIC50 | 5.30 to 6.00 |
| Cn1c(NCCCO)nc2c1c(=O)n(Cc1ccc(Cl)c(C(F)(F)F)c1)c(=O)n2C | pIC50 | 6.00 to 8.00 |
| Cn1c(NC2CCNCC2)nc2c1c(=O)n(Cc1ccc(Cl)c(Cl)c1)c(=O)n2C | pIC50 | 5.30 to 6.00 |
| Cn1c(C(N)C2COC2)nc2c1c(=O)n(Cc1cc3c(Cl)cccc3[nH]1)c(=O)n2C (centres unmarked) | pIC50 | 5.00 to 5.30 |
| Cn1c(NCCS(N)(=O)=O)nc2c1c(=O)n(Cc1ccc(Cl)c(Cl)c1)c(=O)n2C | pIC50 | 5.00 to 5.30 |
| Cn1c(Nc2ccncc2)nc2c1c(=O)n(Cc1cc3c(Cl)cccc3[nH]1)c(=O)n2C | pIC50 | 6.00 to 8.00 |
| Cn1c(N[C@@H]2CCC[C@@H]2N)nc2c1c(=O)n(Cc1cc3c(Cl)cccc3[nH]1)c(=O)n2C | pIC50 | 5.30 to 6.00 |
| Cn1c(C(N)C2CCOCC2)nc2c1c(=O)n(Cc1[nH]c3cccc(Cl)c3c1Cl)c(=O)n2C (centres unmarked) | pIC50 | 6.00 to 8.00 |
| Cn1c(Nc2ccc3c(c2)CC(CO)C3)nc2c1c(=O)n(Cc1ccc(Cl)c(Cl)c1)c(=O)n2C (centres unmarked) | pIC50 | 5.30 to 6.00 |
| Cn1c(N[C@H]2CC[C@@H](O)C2)nc2c1c(=O)n(Cc1cc3ccccc3[nH]1)c(=O)n2C (racemic) | pIC50 | 6.00 to 8.00 |
| Cn1c(N[C@H]2CC[C@H](N)CC2)nc2c1c(=O)n(Cc1ccc(Cl)c(Cl)c1)c(=O)n2C | pIC50 | 5.30 to 6.00 |
| Cn1c(NC[C@H](O)CO)nc2c1c(=O)n(Cc1ccc(Cl)c(Cl)c1)c(=O)n2C | pIC50 | 6.00 to 8.00 |

====

molecular target: Human MTHFD2 (Homo sapiens, UniProt P13995); construct: residues 36-350 in Uniport ID P13995; His6 (N); made in house; host or cells: E. coli; assay: MTHFD2 Activity Assay (dehydrogenase activity, diaphorase/resazurin coupled fluorescence); assay type: biochemical; conditions: inhibitory activity (IC50 and/or binding constant); 0.2 nM MTHFD2, 11 concentrations
quantity kind: IC50

| smiles input | experimental target | quantity kind | data value |
| --- | --- | --- | --- |
| Cn1c(NC2CC(F)(F)C2)nc2c1c(=O)n(Cc1ccc(C(F)(F)F)cc1)c(=O)n2C | Human MTHFD2 (Homo sapiens, UniProt P13995) | IC50 | > 10000 nM |
| C[C@@H](O)CNc1nc2c(c(=O)n(Cc3ccc(Cl)cc3)c(=O)n2C)n1C | Human MTHFD2 (Homo sapiens, UniProt P13995) | IC50 | 5000 to 10000 nM |
| Cn1c(NC2(C(=O)O)CC2)nc2c1c(=O)n(Cc1ccc(Cl)c(Cl)c1)c(=O)n2C | Human MTHFD2 (Homo sapiens, UniProt P13995) | IC50 | 10 to 1000 nM |
| Cn1c(Nc2ccncc2)nc2c1c(=O)n(Cc1cc3cc(Cl)ccc3[nH]1)c(=O)n2C | Human MTHFD2 (Homo sapiens, UniProt P13995) | IC50 | 10 to 1000 nM |
| Cn1c(N[C@@H]2CCC[C@@H]2C(=O)O)nc2c1c(=O)n(Cc1ccc(C(F)(F)F)cc1)c(=O)n2C | Human MTHFD2 (Homo sapiens, UniProt P13995) | IC50 | 1000 to 5000 nM |
| Cn1c(Nc2ccnc(CCC(=O)O)n2)nc2c1c(=O)n(Cc1cc3c(Cl)cccc3[nH]1)c(=O)n2C | Human MTHFD2 (Homo sapiens, UniProt P13995) | IC50 | 10 to 1000 nM |
